# test: Selectivity index, ratio of ED50 for human HepG2 cells to MIC for Escherichia coli K-12 W3110 ATCC 27325
# Type: toxicity
# measurement.parameters: read-out: Selectivity Index
Square brackets hold non-standard residues; d marks the D form. Peptide text beside a SMILES is read from it. N(4-F-Bzl)Gly = O=C(O)CNCc1ccc(F)cc1; Gly(N-2-aminoethyl) = NCCNCC(=O)O; Nphe = O=C(O)CNCc1ccccc1; Nlys = NCCCCNCC(=O)O
measure.name: selectivity ratio
// return a plain number; no unit text

compound | assay.value
NCCNCC(=O)N(CC(=O)N(CC(=O)N(CCN)CC(=O)N(CC(=O)N(CC(=O)N(CCN)CC(=O)N(CC(=O)N(CC(=O)N(CCN)CC(=O)N(CC(=O)N(CC(N)=O)Cc1ccccc1)Cc1ccccc1)Cc1ccccc1)Cc1ccccc1)Cc1ccccc1)Cc1ccccc1)Cc1ccccc1)Cc1ccccc1 (H-[Gly(N-2-aminoethyl)][Nphe][Nphe][Gly(N-2-aminoethyl)][Nphe][Nphe][Gly(N-2-aminoethyl)][Nphe][Nphe][Gly(N-2-aminoethyl)][Nphe][Nphe]-NH2) | 8

The compound NCCCCNCC(=O)N(CC(=O)N(CC(=O)N(CCCCN)CC(=O)N(CC(=O)N(CC(=O)N(CCCCN)CC(=O)N(CC(=O)N(CC(=O)N(CCCCN)CC(=O)N(CC(=O)N(CC(N)=O)Cc1ccc(F)cc1)Cc1ccc(F)cc1)Cc1ccc(F)cc1)Cc1ccc(F)cc1)Cc1ccc(F)cc1)Cc1ccc(F)cc1)Cc1ccc(F)cc1)Cc1ccc(F)cc1 (H-[Nlys][N(4-F-Bzl)Gly][N(4-F-Bzl)Gly][Nlys][N(4-F-Bzl)Gly][N(4-F-Bzl)Gly][Nlys][N(4-F-Bzl)Gly][N(4-F-Bzl)Gly][Nlys][N(4-F-Bzl)Gly][N(4-F-Bzl)Gly]-NH2) showed selectivity ratio equal to 2

###

Each entry below lists one item and its recorded selectivity ratio value.
# test: Selectivity index, ratio of ED50 for human HepG2 cells to MIC for Staphylococcus aureus 3R7089 strain Oxford/ATCC 9144
# Assay type: toxicity
# measurement.parameters: read-out: Selectivity Index
Square brackets hold non-standard residues; d marks the D form. Peptide text beside a SMILES is read from it. Gly(N-2-aminoethyl) = NCCNCC(=O)O; Nspe = C[C@H](NCC(=O)O)c1ccccc1; Nphe = O=C(O)CNCc1ccccc1; Nlys = NCCCCNCC(=O)O
// return a plain number; no unit text

molecule | assay.value
C[C@@H](c1ccccc1)N(CC(N)=O)C(=O)CN(C(=O)CN(CCCCN)C(=O)CN(C(=O)CN(C(=O)CN(CCCCN)C(=O)CN(C(=O)CN(C(=O)CN(CCCCN)C(=O)CN(C(=O)CN(C(=O)CNCCCCN)[C@@H](C)c1ccccc1)[C@@H](C)c1ccccc1)[C@@H](C)c1ccccc1)[C@@H](C)c1ccccc1)[C@@H](C)c1ccccc1)[C@@H](C)c1ccccc1)[C@@H](C)c1ccccc1 (H-[Nlys][Nspe][Nspe][Nlys][Nspe][Nspe][Nlys][Nspe][Nspe][Nlys][Nspe][Nspe]-NH2) | 15

The molecule NCCNCC(=O)N(CC(=O)N(CC(=O)N(CCN)CC(=O)N(CC(=O)N(CC(N)=O)Cc1ccccc1)Cc1ccccc1)Cc1ccccc1)Cc1ccccc1 (H-[Gly(N-2-aminoethyl)][Nphe][Nphe][Gly(N-2-aminoethyl)][Nphe][Nphe]-NH2) showed selectivity ratio equal to 1

The molecule CC(c1ccccc1)N(CC(=O)N(CCCCN)CC(=O)N(CC(=O)N(CC(=O)N(CCCCN)CC(=O)N(CC(=O)N(CC(N)=O)[C@@H](C)c1ccccc1)[C@@H](C)c1ccccc1)Cc1ccc(F)cc1)Cc1ccc(F)cc1)C(=O)CN(C(=O)CN(CCCCN)C(=O)CN(Cc1ccc(F)cc1)C(=O)CN(Cc1ccc(F)cc1)C(=O)CNCCCCN)[C@@H](C)c1ccccc1 (single isomer, unassigned) showed selectivity ratio equal to 28

###

Each entry below lists one item and its recorded selectivity ratio value.
# test: Selectivity index, ratio of ED50 for human HaCaT cells to MIC for Escherichia coli K-12 W3110 ATCC 27325
# Format: toxicity
# measurement.parameters: read-out: Selectivity Index
Square brackets hold non-standard residues; d marks the D form. Peptide text beside a SMILES is read from it. Gly(N-(CH2)6NH2) = NCCCCCCNCC(=O)O; Nphe = O=C(O)CNCc1ccccc1

The compound NCCCCNCC(=O)N(CC(=O)N(CC(=O)N(CCCCN)CC(=O)N(CC(=O)N(CC(=O)N(CCCCN)CC(=O)N(CC(=O)N(CC(N)=O)Cc1cccc(F)c1)Cc1cccc(F)c1)Cc1cccc(F)c1)Cc1cccc(F)c1)Cc1cccc(F)c1)Cc1cccc(F)c1 showed selectivity ratio equal to 5

The compound NCCCCCCNCC(=O)N(CC(=O)N(CC(=O)N(CCCCCCN)CC(=O)N(CC(=O)N(CC(=O)N(CCCCCCN)CC(=O)N(CC(=O)N(CC(N)=O)Cc1ccccc1)Cc1ccccc1)Cc1ccccc1)Cc1ccccc1)Cc1ccccc1)Cc1ccccc1 (H-[Gly(N-(CH2)6NH2)][Nphe][Nphe][Gly(N-(CH2)6NH2)][Nphe][Nphe][Gly(N-(CH2)6NH2)][Nphe][Nphe]-NH2) showed selectivity ratio equal to 2

The compound NCCCCNCC(=O)N(CC(=O)N(CC(=O)N(CCCCN)CC(=O)N(CC(=O)N(CC(=O)N(CCCCN)CC(=O)N(CC(=O)N(CC(N)=O)Cc1ccccc1)Cc1ccccc1)Cc1ccccc1)Cc1ccccc1)Cc1ccccc1)Cc1ccccc1 showed selectivity ratio equal to 2

The compound COc1ccc(CN(CC(N)=O)C(=O)CN(Cc2ccc(OC)cc2)C(=O)CN(CCCCN)C(=O)CN(Cc2ccc(OC)cc2)C(=O)CN(Cc2ccc(OC)cc2)C(=O)CN(CCCCN)C(=O)CN(Cc2ccc(OC)cc2)C(=O)CN(Cc2ccc(OC)cc2)C(=O)CN(CCCCN)C(=O)CN(Cc2ccc(OC)cc2)C(=O)CN(Cc2ccc(OC)cc2)C(=O)CNCCCCN)cc1 showed selectivity ratio equal to 0

###

# test: Selectivity index, ratio of ED50 for human HepG2 cells to MIC for Pseudomonas aeruginosa PAO1 ATCC 15692
# Type: toxicity
# measurement.parameters: read-out: Selectivity Index
Square brackets hold non-standard residues; d marks the D form. Peptide text beside a SMILES is read from it. Nspe = C[C@H](NCC(=O)O)c1ccccc1; NhArg = N=C(N)NCCCCNCC(=O)O
measure.name: selectivity ratio
// return a plain number; no unit text

Guide cases for selectivity ratio, answers given:
molecule | selectivity ratio
C[C@@H](c1ccccc1)N(CC(N)=O)C(=O)CN(C(=O)CN(CCCCNC(=N)N)C(=O)CN(C(=O)CN(C(=O)CN(CCCCNC(=N)N)C(=O)CN(C(=O)CN(C(=O)CN(CCCCNC(=N)N)C(=O)CN(C(=O)CN(C(=O)CNCCCCNC(=N)N)[C@@H](C)c1ccccc1)[C@@H](C)c1ccccc1)[C@@H](C)c1ccccc1)[C@@H](C)c1ccccc1)[C@@H](C)c1ccccc1)[C@@H](C)c1ccccc1)[C@@H](C)c1ccccc1 (H-[NhArg][Nspe][Nspe][NhArg][Nspe][Nspe][NhArg][Nspe][Nspe][NhArg][Nspe][Nspe]-NH2) | 1
CC(c1ccccc1)N(CC(=O)N(CCN)CC(=O)N(CC(=O)N(CC(=O)N(CCN)CC(=O)N(CC(=O)N(CC(N)=O)[C@@H](C)c1ccccc1)[C@@H](C)c1ccccc1)C(C)c1ccccc1)[C@@H](C)c1ccccc1)C(=O)CN(C(=O)CNCCN)C(C)c1ccccc1 (single isomer, unassigned) | 1

The molecule N=C(N)NCCCCNCC(=O)N(CC(=O)N(CC(=O)N(CCCCNC(=N)N)CC(=O)N(CC(=O)N(CC(=O)N(CCCCNC(=N)N)CC(=O)N(CC(=O)N(CC(=O)N(CCCCNC(=N)N)CC(=O)N(CC(=O)N(CC(N)=O)Cc1cccc(F)c1)Cc1cccc(F)c1)Cc1cccc(F)c1)Cc1cccc(F)c1)Cc1cccc(F)c1)Cc1cccc(F)c1)Cc1cccc(F)c1)Cc1cccc(F)c1 showed selectivity ratio equal to 2

###

Each entry below lists one item and its recorded selectivity ratio value.
# test: Selectivity index, ratio of ED50 for human HepG2 cells to MIC for Staphylococcus aureus 3R7089 strain Oxford/ATCC 9144
# Type: toxicity
# measurement.parameters: read-out: Selectivity Index
Square brackets hold non-standard residues; d marks the D form. Peptide text beside a SMILES is read from it. N(4-F-Bzl)Gly = O=C(O)CNCc1ccc(F)cc1; Nspe = C[C@H](NCC(=O)O)c1ccccc1; Nlys = NCCCCNCC(=O)O
// return a plain number; no unit text

compound | measure.name | assay.value
C[C@@H](c1ccccc1)N(CC(N)=O)C(=O)CN(C(=O)CN(CCCCN)C(=O)CN(C(=O)CN(C(=O)CNCCCCN)[C@@H](C)c1ccccc1)[C@@H](C)c1ccccc1)[C@@H](C)c1ccccc1 (H-[Nlys][Nspe][Nspe][Nlys][Nspe][Nspe]-NH2) | selectivity ratio | 1
CCCCCN(CC(=O)N(CC(=O)N(CC(=O)N(CCCCN)CC(=O)N(CC(=O)N(CC(N)=O)[C@@H](C)c1ccccc1)[C@@H](C)c1ccccc1)C(C)c1ccccc1)[C@@H](C)c1ccccc1)C(=O)CN(C(=O)CN(C(=O)CN(CCCCN)C(=O)CN(C(=O)CN(C(=O)CNCCCCN)[C@@H](C)c1ccccc1)C(C)c1ccccc1)[C@@H](C)c1ccccc1)C(C)c1ccccc1 (single isomer, unassigned) | selectivity ratio | 4
C[C@@H](c1ccccc1)N(CC(N)=O)C(=O)CN(C(=O)CN(CCN)C(=O)CN(C(=O)CN(C(=O)CNCCN)[C@@H](C)c1ccccc1)[C@@H](C)c1ccccc1)[C@@H](C)c1ccccc1 | selectivity ratio | 1
C[C@H](c1ccccc1)N(CC(N)=O)C(=O)CN(C(=O)CN(CCCCN)C(=O)CN(C(=O)CN(C(=O)CN(CCCCN)C(=O)CN(C(=O)CN(C(=O)CNCCCCN)[C@H](C)c1ccccc1)[C@@H](C)c1ccccc1)[C@H](C)c1ccccc1)[C@@H](C)c1ccccc1)[C@H](C)c1ccccc1 (stereo in doubt) | selectivity ratio | 50
CCCCCNCC(=O)N(CC(=O)N(CC(=O)N(CCCCC)CC(=O)N(CC(=O)N(CC(=O)N(CCCCN)CC(=O)N(CC(=O)N(CC(=O)N(CCCCN)CC(=O)N(CC(=O)N(CC(N)=O)[C@@H](C)c1ccccc1)[C@@H](C)c1ccccc1)C(C)c1ccccc1)[C@@H](C)c1ccccc1)C(C)c1ccccc1)[C@@H](C)c1ccccc1)C(C)c1ccccc1)[C@@H](C)c1ccccc1 (single isomer, unassigned) | selectivity ratio | 9

The record that follows has no selectivity ratio shown yet.
The compound NCCCCNCC(=O)N(CC(=O)N(CC(=O)N(CCCCN)CC(=O)N(CC(=O)N(CC(=O)N(CCCCN)CC(=O)N(CC(=O)N(CC(=O)N(CCCCN)CC(=O)N(CC(=O)N(CC(N)=O)Cc1ccc(F)cc1)Cc1ccc(F)cc1)Cc1ccc(F)cc1)Cc1ccc(F)cc1)Cc1ccc(F)cc1)Cc1ccc(F)cc1)Cc1ccc(F)cc1)Cc1ccc(F)cc1 (H-[Nlys][N(4-F-Bzl)Gly][N(4-F-Bzl)Gly][Nlys][N(4-F-Bzl)Gly][N(4-F-Bzl)Gly][Nlys][N(4-F-Bzl)Gly][N(4-F-Bzl)Gly][Nlys][N(4-F-Bzl)Gly][N(4-F-Bzl)Gly]-NH2) showed selectivity ratio equal to 15
